- targetOrTestSystem: T1, Bbc1, P47068
- T1 sequence (P47068 1-78, looked up): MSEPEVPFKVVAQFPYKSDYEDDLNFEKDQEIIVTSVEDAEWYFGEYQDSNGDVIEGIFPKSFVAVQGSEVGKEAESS
- experimentalDetails: SPOT array
- conditionsUsed: median of control spots 796
endpointLabel: SPOT intensity

Ask: I'd like to know its SPOT intensity. The binder in question is "ALFRLSFFFPLDPAY"
Reply: 218

Ask: Requested field: SPOT intensity. Item: "FVLRYYILIPHEQWD"
Reply: 15

Ask: Which SPOT intensity value is on record for "VLRFLGFPLPIFEKG" ?
Reply: 30

Ask: Can you share its SPOT intensity? I mean this binder: "APPLPPTAPPPPSLP"
Reply: 0

Ask: What does the record list as SPOT intensity for "AKDLIVPRRPEWNEG" ?
Reply: 1050

Ask: What value of SPOT intensity has been reported for the following binder? "GPPPPLPPPLFPSSS"
Reply: 0

Ask: Look at this binder and give its reported SPOT intensity. "YVRRRPRVRLEPLLS"
Reply: 273
